Molecular target: T1, Dimeric monkey CD48-mFc (monkey)
T1 construct: Soluble monkey CD48 with a C-terminal Fc fusion [mFc]; the whole entry is the construct
T1 chain: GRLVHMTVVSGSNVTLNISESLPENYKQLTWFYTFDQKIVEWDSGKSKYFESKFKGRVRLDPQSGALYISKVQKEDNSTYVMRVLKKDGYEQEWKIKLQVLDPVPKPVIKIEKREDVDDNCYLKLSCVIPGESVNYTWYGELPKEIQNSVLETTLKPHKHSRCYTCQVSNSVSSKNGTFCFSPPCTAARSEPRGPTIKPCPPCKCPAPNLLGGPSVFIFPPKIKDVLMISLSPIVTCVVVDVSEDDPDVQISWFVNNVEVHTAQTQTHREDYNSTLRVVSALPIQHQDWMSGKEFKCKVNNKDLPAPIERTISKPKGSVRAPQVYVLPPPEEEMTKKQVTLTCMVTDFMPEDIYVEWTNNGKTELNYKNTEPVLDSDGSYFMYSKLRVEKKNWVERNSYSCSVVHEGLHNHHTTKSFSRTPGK
Assay: SPR (Biacore), antibody captured by anti-Fc, CD48 in solution, 25 C
For each of the binders below, state its koff.

I have 5 binders here; please give me koff for each one.
1. H4H1778P (antibody, human IgG4, V domains shown, Human IgG4 Fc (H4H)) VH: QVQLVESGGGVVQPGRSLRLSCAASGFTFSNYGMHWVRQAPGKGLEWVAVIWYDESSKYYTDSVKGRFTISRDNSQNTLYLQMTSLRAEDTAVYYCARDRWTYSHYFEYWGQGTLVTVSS VL: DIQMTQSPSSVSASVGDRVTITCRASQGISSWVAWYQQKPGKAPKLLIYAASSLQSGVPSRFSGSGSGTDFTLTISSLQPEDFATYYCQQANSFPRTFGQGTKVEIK
2. H4H1763N (antibody, V domains shown, Human IgG4 Fc (H4H)) VH: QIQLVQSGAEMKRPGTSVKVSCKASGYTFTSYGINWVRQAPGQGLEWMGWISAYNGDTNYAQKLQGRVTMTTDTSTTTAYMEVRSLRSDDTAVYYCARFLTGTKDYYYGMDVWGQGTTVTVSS VL: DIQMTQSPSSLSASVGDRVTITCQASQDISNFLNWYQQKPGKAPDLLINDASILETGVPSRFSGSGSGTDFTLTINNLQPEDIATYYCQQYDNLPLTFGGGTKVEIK
3. H4H1707N (antibody, V domains shown, Human IgG4 Fc (H4H)) VH: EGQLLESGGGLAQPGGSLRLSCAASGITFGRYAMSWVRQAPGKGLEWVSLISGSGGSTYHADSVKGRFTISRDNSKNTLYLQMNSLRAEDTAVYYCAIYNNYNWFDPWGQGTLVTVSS VL: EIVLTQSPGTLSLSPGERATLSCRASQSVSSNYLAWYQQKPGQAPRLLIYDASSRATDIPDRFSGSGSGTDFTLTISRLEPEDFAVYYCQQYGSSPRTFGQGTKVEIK
4. H4H1770P (antibody, human IgG4, V domains shown, Human IgG4 Fc (H4H)) VH: QVQLVQSGAEVKKPGAAVKVSCKASGYTFTAYGISWVRQAPGQGLEWMGWISAYDGDTNNAQKFQGRVTMTTDTSSSTAYMELRSLGSDDTAVYYCARDRYSSSSGYFDYWGQGTLVTVSS VL: DIQMTQSPSSVSASVGDRVTITCRASQDISSWLAWSQQKPGKAPKALIYAASSLQSGVPSRFSGSGSGTDFTLTISSLQPEDFATYYCQQANSFPYTFGQGTKLEIK
5. H4H1772P (antibody, human IgG4, V domains shown, Human IgG4 Fc (H4H)) VH: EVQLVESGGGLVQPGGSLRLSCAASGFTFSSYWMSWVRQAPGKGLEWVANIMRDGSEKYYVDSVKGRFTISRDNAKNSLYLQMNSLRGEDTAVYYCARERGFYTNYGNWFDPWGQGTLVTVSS VL: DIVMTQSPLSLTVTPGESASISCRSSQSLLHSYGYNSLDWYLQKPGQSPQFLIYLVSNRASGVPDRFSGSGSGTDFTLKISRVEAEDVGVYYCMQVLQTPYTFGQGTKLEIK

["1.77e-05 s⁻¹", "6.88e-05 s⁻¹", "0.00119 s⁻¹", "0.000113 s⁻¹", "5.02e-05 s⁻¹"]
